assay_name: In vitro liver microsomal metabolism study, rat
Type: in vitro ADME
condition_summary: rat liver microsomes, 1 μM, NADPH + UDPGA

compound	CLint scaled at 1 µM
COc1ccc2c(c1)[C@]13CCCC[C@@H]1[C@H](C2)N(C)CC3 [Dextromethorphan, reference compound]	642 mL/min/kg
O=C(CCCCCCCn1cc(CCCF)nn1)N1[C@@H]2[C@H](O)[C@@H](O)[C@@H](O)[C@@H](CO)[C@@H]21	182 mL/min/kg

---

measured_target: 167 protein targets (human and rodent recombinant receptors and binding sites)
assay_name: Eurofins SpectrumScreen selectivity panel
condition_summary: range of human and rodent recombinant receptors and binding sites; read-out: IC50 values for off-target receptors and binding sites
Method: The AGAL molecule had ≥50% inhibition of specific binding or activity with IC50 values > 10 µM for a range of human and rodent recombinant receptors and binding sites (e.g., calcium and potassium channels and various subtypes of adrenergic, bombesin, calcitonin, serotonin, acetylcholine, histamine, and glutamate receptors or transporters). The AGAL molecule was tested for estimated inhibition potency (IC50) and/or inhibition constants (Ki) on 167 protein targets (Eurofins SpectrumScreen).
pIC50: −log10 of the molar value.

molecule	pIC50
O=C(CCCCCCCn1cc(CCCF)nn1)N1[C@@H]2[C@H](O)[C@@H](O)[C@@H](O)[C@@H](CO)[C@@H]21 [AGAL]	< 5.00

---

assay_name: Bidirectional permeability in Caco-2 cells
Assay type: in vitro ADME
condition_summary: human, Caco-2; 5 µM, alone
Friendly reminder: Papp A→B at 60 min, 5 µM below 0.4 ×10⁻⁶ cm/s is yes (1), at or above is no (0).

compound	qualitative_label
NS(=O)(=O)OC[C@@H]1C[C@@H](n2ccc3c(N[C@H]4CCc5ccccc54)ncnc32)C[C@@H]1O [Pevonedistat, reference compound]	no (0)
O=C(CCCCCCCn1cc(CCCF)nn1)N1[C@@H]2[C@H](O)[C@@H](O)[C@@H](O)[C@@H](CO)[C@@H]21	yes (1)
CC(C)(C)NCC(O)COc1cccc2c1CC(O)C(O)C2 (centres unmarked) [Nadolol, reference compound]	yes (1)
Nc1cc(N2CCCCC2)nc(N)[n+]1[O-] [Minoxidil, reference compound]	no (0)
CC(C)NCC(O)COc1cccc2ccccc12 (centres unmarked) [Propranolol, reference compound]	no (0)

---

assay_name: In vitro liver microsomal metabolism study, mouse
Type: in vitro ADME
condition_summary: mouse liver microsomes, 1 μM, NADPH + UDPGA
measured_quantity: CLint scaled at 1 µM (mL/min/kg)

molecule	measured_quantity	unit_info	numeric_value
O=C(CCCCCCCn1cc(CCCF)nn1)N1[C@@H]2[C@H](O)[C@@H](O)[C@@H](O)[C@@H](CO)[C@@H]21 [AGAL]	CLint scaled at 1 µM	mL/min/kg	293
COc1ccc2c(c1)[C@]13CCCC[C@@H]1[C@H](C2)N(C)CC3 [Dextromethorphan, reference compound]	CLint scaled at 1 µM	mL/min/kg	552

---

Catalogue of half-life at 1 µM values
assay_name: Plasma stability study, mouse
Type: in vitro ADME
condition_summary: mouse, pooled plasma, 37 °C, read-out: Plasma Half-Life, t1/2

molecule	unit_info	value_modifier	half-life at 1 µM
CC(C)[N+](C)(CCOC(=O)C1c2ccccc2Oc2ccccc21)C(C)C [Propantheline, reference compound]	min	=	26
O=C(CCCCCCCn1cc(CCCF)nn1)N1[C@@H]2[C@H](O)[C@@H](O)[C@@H](O)[C@@H](CO)[C@@H]21 [AGAL]	min	<	10
CCOC(=O)[C@H](CCc1ccccc1)N[C@@H](C)C(=O)N1CCC[C@H]1C(=O)O [Enalapril, reference compound]	min	=	30.6
